# Tgt: Tyrosine-protein kinase Lck (Homo sapiens, UniProt P06239)
# Sequence (P06239 whole entry): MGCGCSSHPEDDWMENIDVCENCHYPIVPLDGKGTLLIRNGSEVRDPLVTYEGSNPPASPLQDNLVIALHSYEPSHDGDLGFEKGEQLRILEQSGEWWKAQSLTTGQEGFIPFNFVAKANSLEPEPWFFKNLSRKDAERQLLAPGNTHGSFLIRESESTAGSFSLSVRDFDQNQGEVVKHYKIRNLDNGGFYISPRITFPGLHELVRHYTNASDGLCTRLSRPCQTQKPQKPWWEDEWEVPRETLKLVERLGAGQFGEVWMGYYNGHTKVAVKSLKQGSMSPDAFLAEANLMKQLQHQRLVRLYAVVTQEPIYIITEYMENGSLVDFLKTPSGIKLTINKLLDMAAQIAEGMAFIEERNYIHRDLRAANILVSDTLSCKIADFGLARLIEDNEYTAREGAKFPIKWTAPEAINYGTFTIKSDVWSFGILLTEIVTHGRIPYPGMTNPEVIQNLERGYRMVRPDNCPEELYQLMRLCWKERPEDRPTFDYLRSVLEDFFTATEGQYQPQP
# Test summary: Inhibition of Lck
Measurement label: IC50 (µM)
Quick reminder: number only, in µM, skip the unit.

response.value for CC(Nc1nccc(-n2cnc3ccccc32)n1)C1CCCN(C(=O)OCc2ccccc2)C1 (stereo in doubt; 12b) (field: IC50) = 2.72

response.value for O=C(c1ccc2ccccc2c1)N1CCOC(CNc2nccc(-n3cnc4ccccc43)n2)C1 (centres undefined) (field: IC50) = 0.203

response.value for CC(Nc1nccc(-n2cnc3ccccc32)n1)C1CCCN(C(=O)OCc2ccccc2)C1 (stereo in doubt; 12a) (field: IC50) = 0.144
